# Tested Target: GluN1/GluN2A receptors (Homo sapiens, UniProt Q05586+Q12879)
# Construct: expressed in transfected cells; host or cells: HEK293
# Sequence (Q12879 23-1464, other chains not shown): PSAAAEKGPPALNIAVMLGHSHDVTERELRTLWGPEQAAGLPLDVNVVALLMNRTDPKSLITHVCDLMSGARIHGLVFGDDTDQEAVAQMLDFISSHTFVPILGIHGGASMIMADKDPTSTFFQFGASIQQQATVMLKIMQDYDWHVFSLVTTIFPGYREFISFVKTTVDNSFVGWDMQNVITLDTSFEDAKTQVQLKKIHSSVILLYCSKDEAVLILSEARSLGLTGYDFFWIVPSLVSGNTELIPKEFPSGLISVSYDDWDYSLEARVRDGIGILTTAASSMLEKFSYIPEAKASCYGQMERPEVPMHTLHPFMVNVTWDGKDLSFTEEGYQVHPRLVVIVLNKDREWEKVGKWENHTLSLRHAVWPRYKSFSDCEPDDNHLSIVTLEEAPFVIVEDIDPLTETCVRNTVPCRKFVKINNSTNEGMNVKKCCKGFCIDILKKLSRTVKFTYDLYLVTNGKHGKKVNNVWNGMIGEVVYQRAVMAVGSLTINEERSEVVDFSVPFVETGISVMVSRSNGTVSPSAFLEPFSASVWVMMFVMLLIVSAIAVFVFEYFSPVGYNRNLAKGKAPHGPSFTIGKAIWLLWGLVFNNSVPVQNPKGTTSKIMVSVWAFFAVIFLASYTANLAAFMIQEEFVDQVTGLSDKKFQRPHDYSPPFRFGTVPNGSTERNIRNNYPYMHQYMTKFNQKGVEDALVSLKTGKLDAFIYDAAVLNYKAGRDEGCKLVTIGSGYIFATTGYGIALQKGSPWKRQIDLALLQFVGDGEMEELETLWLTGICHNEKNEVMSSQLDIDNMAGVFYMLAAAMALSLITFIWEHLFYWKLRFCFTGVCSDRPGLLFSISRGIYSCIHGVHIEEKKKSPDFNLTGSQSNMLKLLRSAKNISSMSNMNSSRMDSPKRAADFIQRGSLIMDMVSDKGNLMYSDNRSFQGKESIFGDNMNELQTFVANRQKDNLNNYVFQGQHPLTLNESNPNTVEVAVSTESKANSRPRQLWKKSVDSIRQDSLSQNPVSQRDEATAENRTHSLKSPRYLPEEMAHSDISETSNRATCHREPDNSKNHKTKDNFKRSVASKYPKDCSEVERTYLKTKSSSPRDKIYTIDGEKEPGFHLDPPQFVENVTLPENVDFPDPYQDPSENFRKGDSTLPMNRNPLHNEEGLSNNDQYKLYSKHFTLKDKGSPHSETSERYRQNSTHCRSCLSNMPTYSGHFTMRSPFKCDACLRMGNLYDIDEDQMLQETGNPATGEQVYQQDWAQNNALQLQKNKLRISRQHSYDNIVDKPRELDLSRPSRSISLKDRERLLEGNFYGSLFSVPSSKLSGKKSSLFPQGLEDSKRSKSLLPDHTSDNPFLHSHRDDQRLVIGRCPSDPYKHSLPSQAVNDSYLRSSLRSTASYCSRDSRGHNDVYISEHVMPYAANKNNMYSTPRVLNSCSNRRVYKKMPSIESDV
# Procedure Details: cell-based
# Condition Label: 40 mV; read-out: IC50 40 mV GluN1/GluN2A
# Experimental: The cells grown in a 24-well plate were put in Opti-MEM I media containing a mixture of 0.9 µL of MATra-A Reagent (IBA) and 900 ng of DNA vectors carrying the human versions of the GluN1-1a (GluN1), GluN2A, or GluN2B subunits and green fluorescent protein (GFP; all vectors were added in equal ratio). […]
# IC50 annotations

{"Molecule": "CCCCNC1c2ccccc2-c2ccccc21.Cl [Compound 3m, N-Butyl-9H-fluoren-9-amine hydrochloride]", "Tested Target": "GluN1/GluN2A receptors (Homo sapiens, UniProt Q05586+Q12879)", "IC50, µM": 114}
{"Molecule": "Cl.c1ccc2c(c1)-c1ccccc1C2NC1CCC1", "Tested Target": "GluN1/GluN2A receptors (Homo sapiens, UniProt Q05586+Q12879)", "IC50, µM": 82.6}

---

# Procedure Details: MTT cell viability test, hCMEC/D3
# Assay type: cell-based
# Condition Label: human, hCMEC/D3 cells, 100 µM, read-out: % viable cells hCMEC/D3

{"Molecule": "Cl.c1ccc2c(c1)-c1ccccc1C2NC1CCCCC1", "viability at 100 µM [%]": 82.9}
{"Molecule": "CCCCNC1c2ccccc2-c2ccccc21.Cl [Compound 3m, N-Butyl-9H-fluoren-9-amine hydrochloride]", "viability at 100 µM [%]": 80.1}
{"Molecule": "CC(C)CNC1c2ccccc2-c2ccccc21.Cl", "viability at 100 µM [%]": 92.7}
{"Molecule": "Cl.c1ccc2c(c1)-c1ccccc1C2NC1CCC1", "viability at 100 µM [%]": 92.3}

---

# Tested Target: hBChE (Homo sapiens)
# Construct: made in house
# Sequence (P06276 29-602): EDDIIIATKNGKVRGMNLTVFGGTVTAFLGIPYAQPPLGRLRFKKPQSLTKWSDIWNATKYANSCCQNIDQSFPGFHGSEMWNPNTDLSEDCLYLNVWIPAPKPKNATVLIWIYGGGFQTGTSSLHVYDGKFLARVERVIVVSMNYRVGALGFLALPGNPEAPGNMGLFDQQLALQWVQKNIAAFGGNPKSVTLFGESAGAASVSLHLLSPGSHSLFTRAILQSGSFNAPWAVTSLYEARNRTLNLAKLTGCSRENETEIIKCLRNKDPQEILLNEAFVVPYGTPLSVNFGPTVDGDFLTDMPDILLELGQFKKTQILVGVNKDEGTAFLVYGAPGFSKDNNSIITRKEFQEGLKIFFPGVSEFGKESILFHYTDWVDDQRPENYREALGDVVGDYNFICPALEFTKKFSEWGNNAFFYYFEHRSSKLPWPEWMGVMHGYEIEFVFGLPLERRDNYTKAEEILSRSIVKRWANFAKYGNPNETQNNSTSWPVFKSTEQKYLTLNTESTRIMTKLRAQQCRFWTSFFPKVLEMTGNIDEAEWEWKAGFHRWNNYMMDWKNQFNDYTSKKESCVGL
# Procedure Details: biochemical
# Assay type: biochemical
Observable: IC50 (µM)

{"Smiles": "CN1CCN(C2c3ccccc3-c3ccccc32)CC1", "Recorded Number": 23.5}

---

# Tested Target: GluN1/GluN2A receptors (Homo sapiens, UniProt Q05586+Q12879)
# Construct: expressed in transfected cells; host or cells: HEK293
# Procedure Details: cell-based
# Condition Label: −60 mV; read-out: IC50 −60 mV GluN1/GluN2A
# IC50 annotations

{"Compound": "CCCCNC1c2ccccc2-c2ccccc21.Cl [Compound 3m, N-Butyl-9H-fluoren-9-amine hydrochloride]", "IC50": "14.2 µM"}
{"Compound": "Cl.c1ccc2c(c1)-c1ccccc1C2NC1CCC1 [Compound 3e]", "IC50": "8.85 µM"}

---

# Tested Target: GluN1/GluN2B receptors (Homo sapiens, UniProt Q05586+Q13224)
# Construct: expressed in transfected cells; host or cells: HEK293
# Sequence (Q13224 27-1484, other chains not shown): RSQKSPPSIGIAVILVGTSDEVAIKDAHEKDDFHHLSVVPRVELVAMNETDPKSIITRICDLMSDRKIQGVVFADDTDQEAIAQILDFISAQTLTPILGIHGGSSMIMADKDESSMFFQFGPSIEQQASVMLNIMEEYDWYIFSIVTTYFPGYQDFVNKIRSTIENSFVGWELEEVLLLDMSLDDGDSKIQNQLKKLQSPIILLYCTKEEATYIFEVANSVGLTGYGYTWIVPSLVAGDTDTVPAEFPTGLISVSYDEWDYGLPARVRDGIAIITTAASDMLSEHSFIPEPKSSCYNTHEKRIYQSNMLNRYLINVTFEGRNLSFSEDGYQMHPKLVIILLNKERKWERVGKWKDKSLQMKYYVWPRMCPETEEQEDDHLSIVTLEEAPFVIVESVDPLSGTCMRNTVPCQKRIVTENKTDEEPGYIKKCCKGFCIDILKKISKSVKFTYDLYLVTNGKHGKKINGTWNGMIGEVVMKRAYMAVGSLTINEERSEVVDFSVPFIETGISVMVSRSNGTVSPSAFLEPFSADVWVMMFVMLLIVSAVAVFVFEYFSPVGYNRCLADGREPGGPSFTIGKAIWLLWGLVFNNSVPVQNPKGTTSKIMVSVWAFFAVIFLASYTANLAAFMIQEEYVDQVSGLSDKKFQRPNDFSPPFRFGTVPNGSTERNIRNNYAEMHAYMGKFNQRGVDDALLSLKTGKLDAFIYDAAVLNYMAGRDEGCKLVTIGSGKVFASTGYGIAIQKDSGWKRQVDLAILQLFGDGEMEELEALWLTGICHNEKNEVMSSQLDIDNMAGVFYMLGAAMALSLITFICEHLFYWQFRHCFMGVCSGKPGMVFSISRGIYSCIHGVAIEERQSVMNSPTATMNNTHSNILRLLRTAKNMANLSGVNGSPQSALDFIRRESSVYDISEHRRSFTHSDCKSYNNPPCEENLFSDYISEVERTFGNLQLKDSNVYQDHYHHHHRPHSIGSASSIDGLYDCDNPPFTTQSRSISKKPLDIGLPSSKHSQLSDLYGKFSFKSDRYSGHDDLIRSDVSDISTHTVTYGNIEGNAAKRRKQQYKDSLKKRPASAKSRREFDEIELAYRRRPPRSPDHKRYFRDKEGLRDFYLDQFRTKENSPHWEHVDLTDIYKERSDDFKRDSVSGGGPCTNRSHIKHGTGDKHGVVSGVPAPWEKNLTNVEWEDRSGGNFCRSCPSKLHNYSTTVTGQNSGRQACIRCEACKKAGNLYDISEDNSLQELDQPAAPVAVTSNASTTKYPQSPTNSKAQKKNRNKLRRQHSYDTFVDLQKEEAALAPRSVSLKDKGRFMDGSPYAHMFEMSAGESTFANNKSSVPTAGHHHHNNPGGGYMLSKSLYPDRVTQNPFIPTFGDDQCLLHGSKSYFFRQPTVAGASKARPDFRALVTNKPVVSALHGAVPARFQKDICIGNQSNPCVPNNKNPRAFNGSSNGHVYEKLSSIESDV
# Procedure Details: cell-based
# Condition Label: HEK293, read-out: RI (%) ± SEM GluN1/GluN2B
Structures can show the parent of a compound that is named as a salt.
Fulfilled means recorded inhibition at 10 µM is 20% or above; Not fulfilled means it is below 20%.

{"Compound": "Cl.c1ccc2c(c1)-c1ccccc1C2NC1CCC1 [Compound 3e]", "Qualitative Label": "Fulfilled"}
{"Compound": "CCN1CCN(C2c3ccccc3-c3ccccc32)CC1 [Compound 3k]", "Qualitative Label": "Not fulfilled"}
{"Compound": "CCNC1c2ccccc2-c2ccccc21 [Compound 3h, N-Ethyl-9H-fluoren-9-amine hydrochloride]", "Qualitative Label": "Not fulfilled"}
{"Compound": "CC(C)NC1c2ccccc2-c2ccccc21 [Compound 3a]", "Qualitative Label": "Fulfilled"}
{"Compound": "COCCNC1c2ccccc2-c2ccccc21 [Compound 3g]", "Qualitative Label": "Not fulfilled"}
{"Compound": "CN1CCN(C2c3ccccc3-c3ccccc32)CC1 [Compound 3j]", "Qualitative Label": "Fulfilled"}
{"Compound": "c1ccc2c(c1)-c1ccccc1C2N1CCCC1 [Compound 3o]", "Qualitative Label": "Fulfilled"}
{"Compound": "Cl.c1ccc2c(c1)-c1ccccc1C2NC1CCCCC1 [Compound 3c]", "Qualitative Label": "Not fulfilled"}
{"Compound": "c1ccc2c(c1)-c1ccccc1C2N1CCCCC1 [Compound 3f]", "Qualitative Label": "Not fulfilled"}
{"Compound": "c1ccc2c(c1)-c1ccccc1C2NC1CC1 [Compound 3d]", "Qualitative Label": "Not fulfilled"}
{"Compound": "c1ccc2c(c1)-c1ccccc1C2N1CCOCC1 [Compound 3l]", "Qualitative Label": "Not fulfilled"}
{"Compound": "CNC1c2ccccc2-c2ccccc21 [Compound 3b]", "Qualitative Label": "Not fulfilled"}
{"Compound": "CCCCNC1c2ccccc2-c2ccccc21.Cl [Compound 3m, N-Butyl-9H-fluoren-9-amine hydrochloride]", "Qualitative Label": "Fulfilled"}
{"Compound": "CC(C)CNC1c2ccccc2-c2ccccc21.Cl [Compound 3n]", "Qualitative Label": "Fulfilled"}

---

# Tested Target: GluN1/GluN2A receptors (Homo sapiens, UniProt Q05586+Q12879)
# Construct: expressed in transfected cells; host or cells: HEK293
# Procedure Details: cell-based
# Condition Label: HEK293, read-out: RI (%) ± SEM GluN1/GluN2A
Where a name gives a salt, the structure may show the parent alone.
# inhibition at 10 µM annotations

{"Compound": "CCNC1c2ccccc2-c2ccccc21 [Compound 3h, N-Ethyl-9H-fluoren-9-amine hydrochloride]", "inhibition at 10 µM, %": 26.9}
{"Compound": "Cl.c1ccc2c(c1)-c1ccccc1C2NC1CCCCC1", "inhibition at 10 µM, %": 41}
{"Compound": "CCN(CC)C1c2ccccc2-c2ccccc21", "inhibition at 10 µM, %": 25.7}
{"Compound": "c1ccc2c(c1)-c1ccccc1C2N1CCOCC1", "inhibition at 10 µM, %": 14.9}
{"Compound": "COCCNC1c2ccccc2-c2ccccc21", "inhibition at 10 µM, %": 18.7}
{"Compound": "CCCCNC1c2ccccc2-c2ccccc21.Cl [Compound 3m, N-Butyl-9H-fluoren-9-amine hydrochloride]", "inhibition at 10 µM, %": 36.2}
{"Compound": "Cl.c1ccc2c(c1)-c1ccccc1C2NC1CCC1", "inhibition at 10 µM, %": 52.3}
{"Compound": "CN1CCN(C2c3ccccc3-c3ccccc32)CC1", "inhibition at 10 µM, %": 29.1}
{"Compound": "CNC1c2ccccc2-c2ccccc21", "inhibition at 10 µM, %": 36.2}
{"Compound": "c1ccc2c(c1)-c1ccccc1C2N1CCCC1", "inhibition at 10 µM, %": 27.8}

---

# Tested Target: GluN1/GluN2A receptors (Homo sapiens, UniProt Q05586+Q12879)
# Construct: expressed in transfected cells; host or cells: HEK293
# Procedure Details: cell-based
# Condition Label: HEK293, read-out: RI (%) ± SEM GluN1/GluN2A
criterion met means recorded inhibition at 10 µM is 30% or above; criterion not met means it is below 30%.

{"Molecule": "c1ccc2c(c1)-c1ccccc1C2NC1CC1 [Compound 3d]", "Qualitative Label": "criterion not met"}
{"Molecule": "CC(C)NC1c2ccccc2-c2ccccc21 [Compound 3a]", "Qualitative Label": "criterion met"}
{"Molecule": "CC(C)CNC1c2ccccc2-c2ccccc21.Cl [Compound 3n]", "Qualitative Label": "criterion met"}
{"Molecule": "CCN1CCN(C2c3ccccc3-c3ccccc32)CC1 [Compound 3k]", "Qualitative Label": "criterion met"}
{"Molecule": "c1ccc2c(c1)-c1ccccc1C2N1CCCCC1 [Compound 3f]", "Qualitative Label": "criterion met"}

---

# Procedure Details: MTT cell viability test, hCMEC/D3
# Assay type: cell-based
# Condition Label: human, 50 µM, read-out: % viable cells hCMEC/D3
Observable: viability at 50 µM (%)

{"Compound": "Nc1c2c(nc3ccccc13)CCCC2 [THA, Tacrine, reference compound]", "Recorded Number": 91.1}

---

# Tested Target: hBChE (Homo sapiens)
# Construct: made in house
# Procedure Details: biochemical
# Assay type: biochemical
# Condition Label: mean of at least three experiments; read-out: IC50 ± SEM hBChE
Counter-ions that a name gives are not always drawn.
# IC50 annotations

{"Compound": "Cl.c1ccc2c(c1)-c1ccccc1C2NC1CCC1", "IC50 / µM": 2.03}
{"Compound": "c1ccc2c(c1)-c1ccccc1C2N1CCCC1", "IC50 / µM": 1.8}
{"Compound": "CNC1c2ccccc2-c2ccccc21", "IC50 / µM": 8.91}
{"Compound": "CCNC1c2ccccc2-c2ccccc21 [Compound 3h, N-Ethyl-9H-fluoren-9-amine hydrochloride]", "IC50 / µM": 6.58}
{"Compound": "Cl.c1ccc2c(c1)-c1ccccc1C2NC1CCCCC1", "IC50 / µM": 0.47}
{"Compound": "c1ccc2c(c1)-c1ccccc1C2N1CCCCC1", "IC50 / µM": 2.13}
{"Compound": "c1ccc2c(c1)-c1ccccc1C2N1CCOCC1", "IC50 / µM": 54.7}
{"Compound": "COCCNC1c2ccccc2-c2ccccc21", "IC50 / µM": 2.56}
{"Compound": "CCN1CCN(C2c3ccccc3-c3ccccc32)CC1", "IC50 / µM": 12.8}
{"Compound": "CCCCNC1c2ccccc2-c2ccccc21.Cl [Compound 3m, N-Butyl-9H-fluoren-9-amine hydrochloride]", "IC50 / µM": 1.02}
{"Compound": "CCN(CC)C1c2ccccc2-c2ccccc21", "IC50 / µM": 5.38}
{"Compound": "c1ccc2c(c1)-c1ccccc1C2NC1CC1", "IC50 / µM": 6.42}

FYI, the data here is from paper PMC7822176.
